- System: Monkey Kidney Cells (CV-1)
- PROTOCOL: Cytotoxicity to monkey kidney cells (CV-1) determined by Dr. R. G. Hughes, Jr.
- MEASUREMENT PARAMETERS: 25 μg/disk; 8 or less essentially indicates noncytotoxicity
PARAMETER: cytotoxicity, zone diameter

• Nc1ncc([C@@H]2[C@@H](CNC(=O)c3cc(Br)c[nH]3)[C@H](CNC(=O)c3cc(Br)c[nH]3)[C@H]2c2cnc(N)[nH]2)[nH]1 (relative stereo) [Compound 2a, Sceptrin Acetate] = 5 mm
• Nc1ncc(C2c3nc(N)[nH]c3CC(CNC(=O)c3cc(Br)c[nH]3)C2CNC(=O)c2cc(Br)c[nH]2)[nH]1 (centres unmarked) [Compound 4a, Ageliferin Acetate] = 5 mm
• NC1=NC(=O)C(C2C(CNC(=O)c3ccc[nH]3)C(CNC(=O)c3cc(Br)c[nH]3)C2c2cnc(N)[nH]2)N1 (centres unmarked) [Compound 7a, Debromooxysceptrin Acetate] = 5 mm
• Nc1ncc([C@@H]2[C@@H](CNC(=O)c3cc(Br)c(Br)[nH]3)[C@H](CNC(=O)c3cc(Br)c(Br)[nH]3)[C@H]2c2cnc(N)[nH]2)[nH]1 (relative stereo) [Compound 3a, Dibromosceptrin Acetate] = 5 mm

Now examine the next entry.
Exam item: # query: cytotoxicity, zone diameter of entry NC1=NC(=O)C(C2C(CNC(=O)c3cc(Br)c[nH]3)C(CNC(=O)c3cc(Br)c[nH]3)C2c2cnc(N)[nH]2)N1 (centres unmarked) [Compound 8a, Oxysceptrin Acetate]
Marked response: 5 mm
